Property: ADCC Fold-improved (against AB-008873); scope: individual binders
target desc: Human EphA2 (ephrin receptor A2) on cells (human, UniProt P29317 25-976)
Sequence (P29317 25-976): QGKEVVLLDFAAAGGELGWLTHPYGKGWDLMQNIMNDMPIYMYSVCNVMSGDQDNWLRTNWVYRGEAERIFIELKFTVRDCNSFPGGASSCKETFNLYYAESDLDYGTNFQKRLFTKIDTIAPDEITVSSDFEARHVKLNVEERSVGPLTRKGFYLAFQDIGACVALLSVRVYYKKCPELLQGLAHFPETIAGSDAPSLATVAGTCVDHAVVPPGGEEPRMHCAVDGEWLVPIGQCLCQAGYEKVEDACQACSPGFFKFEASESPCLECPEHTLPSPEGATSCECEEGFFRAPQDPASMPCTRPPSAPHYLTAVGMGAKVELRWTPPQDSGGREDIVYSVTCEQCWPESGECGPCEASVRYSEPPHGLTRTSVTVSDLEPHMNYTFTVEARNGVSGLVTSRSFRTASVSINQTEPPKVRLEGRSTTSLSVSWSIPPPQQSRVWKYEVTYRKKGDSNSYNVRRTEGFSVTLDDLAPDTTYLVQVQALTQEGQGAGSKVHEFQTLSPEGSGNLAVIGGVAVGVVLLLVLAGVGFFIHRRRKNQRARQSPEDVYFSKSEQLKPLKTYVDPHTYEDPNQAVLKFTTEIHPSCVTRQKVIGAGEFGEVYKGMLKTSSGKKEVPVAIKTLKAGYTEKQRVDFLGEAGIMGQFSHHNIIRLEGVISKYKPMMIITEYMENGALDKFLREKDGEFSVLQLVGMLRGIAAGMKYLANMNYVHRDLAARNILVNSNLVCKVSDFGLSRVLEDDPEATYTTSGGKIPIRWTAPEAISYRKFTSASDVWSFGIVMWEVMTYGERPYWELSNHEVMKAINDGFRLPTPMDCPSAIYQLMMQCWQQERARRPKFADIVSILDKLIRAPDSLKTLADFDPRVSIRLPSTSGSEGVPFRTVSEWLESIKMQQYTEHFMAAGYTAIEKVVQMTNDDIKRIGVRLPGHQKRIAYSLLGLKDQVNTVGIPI
test: cell-based or functional assay
Entry rule: numbers only, all in fold.

1. AB-010361 (antibody, mouse IgG2a, V domains shown) VH: QVQLQQWGAGLLKPSETLSLTCAVYGGSFSGYYWSWIRQPPGKGLEWIGEINHRGSINYNNYNPSLKSRVTISVDTSKNQFSLKLSSVTAADTAVYYCAKPLRPHCTNGVCYSGDAFDIWGQGTMVTVAS VL: SYVLTQPPSVSVAPGQTARITCGGNNIGSKNVHWYQQKPGQAPVLVVYDDSDRPSGIPEQFSGSNSGNTATLTISRVEAGDEADYYCQVWDSSSDHVVFGGGTKLTVL :: 11.2
2. AB-010357 (antibody, mouse IgG2a, V domains shown) VH: QVQLQQWGAGLLKPSETLSLTCAVYGGSFSDYYWSWIRQPPGKGLEWIGEINHRGSINYNNYNPSLKSRVTISVDTSKNQFSLKLSSVTAADTAVYYCAKPLRPHCTNGVCYSGDAFDIWGQGTMVTVAS VL: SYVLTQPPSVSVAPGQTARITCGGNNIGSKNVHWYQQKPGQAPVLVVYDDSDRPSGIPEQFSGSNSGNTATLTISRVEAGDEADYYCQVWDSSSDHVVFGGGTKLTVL :: 3

Moving on to the next binder.
Request: Give the measured ADCC Fold-improved (against AB-008873) of AB-010358 (antibody, mouse IgG2a, V domains shown) VH: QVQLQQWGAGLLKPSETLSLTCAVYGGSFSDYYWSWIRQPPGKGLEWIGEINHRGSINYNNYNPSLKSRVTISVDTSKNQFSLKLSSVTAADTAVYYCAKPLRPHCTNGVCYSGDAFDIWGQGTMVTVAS VL: SYVLTQPPSVSVAPGQTARITCGGNNIGSKNVHWYQQKPGQAPVLVVYDDSDRPSGIPERFSGSNSGNTATLTISRVEAGDEADYYCQVWDSSSDHLVFGGGTKLTVL .
Response: 0.47
